Assay System: T1, human GIP receptor (human, UniProt P48546 22-466)
T1 construct: whole, on cells; also called hGIPR; hGIP-R
T1 sequence (looked up): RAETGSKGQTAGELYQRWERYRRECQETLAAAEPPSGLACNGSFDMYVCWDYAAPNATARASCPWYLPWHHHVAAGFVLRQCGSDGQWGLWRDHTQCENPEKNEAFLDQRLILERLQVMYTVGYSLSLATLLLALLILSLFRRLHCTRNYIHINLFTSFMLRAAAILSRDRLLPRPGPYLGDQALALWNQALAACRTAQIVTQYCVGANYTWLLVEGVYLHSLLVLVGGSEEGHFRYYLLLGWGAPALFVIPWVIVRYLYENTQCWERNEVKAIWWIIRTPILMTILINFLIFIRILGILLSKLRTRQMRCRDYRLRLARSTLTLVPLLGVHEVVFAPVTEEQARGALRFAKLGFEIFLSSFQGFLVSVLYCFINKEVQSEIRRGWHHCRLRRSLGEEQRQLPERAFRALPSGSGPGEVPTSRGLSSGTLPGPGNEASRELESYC
Assay Details: [125I]-GIP competition SPA, hGIPR membranes
Property Label: Ki (nM)
Return type: number; implicit unit nM.

XXEGTFTSDYSIXLDKKAQXAFIEYLIEGGPSSGAPPPS (D-Tyr1; Aib2; αMeL13; K17((2-[2-(2-Amino-ethoxy)-ethoxy]-acetyl)2-(γ-Glu)-CO-(CH2)18-CO2H); Aib20; C-terminal NH2) [Example 334] :: 0.0646
XXEGTFTSDYSIXLDEKAQXAFIEYLIAGGPSSGAPPPS (D-Tyr1; Aib2; αMeL13; K17((2-[2-(2-Amino-ethoxy)-ethoxy]-acetyl)2-(γ-Glu)-CO-(CH2)18-CO2H); Aib20; C-terminal NH2) [Example 341] :: 0.0559
YXEGTFTSDYSIXLDKKAQXAFIEYLIAGGPSSG (Aib2; αMeL13; K17((2-[2-(2-Amino-ethoxy)-ethoxy]-acetyl)2-(γ-Glu)-CO-(CH2)16-CO2H); Aib20; C-terminal NH2) [Example 305] :: 0.025

What the record says about YXEGTFTSDYSIXLDKKAQXEFIEYLIAGGPSSG (Aib2; αMeL13; K17((2-[2-(2-Amino-ethoxy)-ethoxy]-acetyl)2-(γ-Glu)-CO-(CH2)16-CO2H); Aib20; C-terminal NH2) [Example 306] : Ki is 0.0349

Per the records, this binder ( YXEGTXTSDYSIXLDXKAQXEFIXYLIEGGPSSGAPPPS (Aib2; αMeF(2F)6; αMeL13; Dab16; K17((2-[2-(2-Amino-ethoxy)-ethoxy]-acetyl)2-(γ-Glu)-CO-(CH2)18-CO2H); Aib20; D-Glu24; C-terminal NH2) [Example 217] ) has Ki equal to 0.0376

Measured Ki of XXEGTFTSDYSIXLDXKAQXEFIXYLIAGGPSSGAPPPS (D-Tyr1; Aib2; αMeL13; Orn16; K17((2-[2-(2-Amino-ethoxy)-ethoxy]-acetyl)2-(γ-Glu)-CO-(CH2)18-CO2H); Aib20; D-Glu24; C-terminal NH2) [Example 354] : 0.175

Input XXEGTFTSDYSIXLDEKAQXEFIEYLIAGGPSSGAPPPS (D-Tyr1; Aib2; αMeL13; K17((2-[2-(2-Amino-ethoxy)-ethoxy]-acetyl)2-(γ-Glu)-CO-(CH2)18-CO2H); Aib20; C-terminal NH2) [Example 342] . Output Ki: 0.129

Item: YXEGTXTSDYSIXLDHKAQXEFIXYLIEGGPSSGAPPPS (Aib2; αMeF(2F)6; αMeL13; K17((2-[2-(2-Amino-ethoxy)-ethoxy]-acetyl)2-(γ-Glu)-CO-(CH2)18-CO2H); Aib20; D-Glu24; C-terminal NH2) [Example 230] | Ki: 0.042

Summary for this binder, YXEGTFTSDYSIXLDEKAQXDFIEYLIAGGPSSGAPPPS (Aib2; αMeL13; K17((2-[2-(2-Amino-ethoxy)-ethoxy]-acetyl)2-(γ-Glu)-CO-(CH2)18-CO2H); Aib20; C-terminal NH2) [Example 344] : Ki is 0.0507

get_value(item= YXEGTXTSDYSILLDKKAQXEFIEYLIEGGPSSG (Aib2; αMeF(2F)6; K17((2-[2-(2-Amino-ethoxy)-ethoxy]-acetyl)2-(γ-Glu)-CO-(CH2)16-CO2H); Aib20; C-terminal NH2) [Example 312] , readout=Ki) returns 0.0348

Looking up YXEGTFTSDYSIXLDKKAQXEFIEYLIEGGPSSGAPPPS (Aib2; αMeL13; K17((2-[2-(2-Amino-ethoxy)-ethoxy]-acetyl)2-(γ-Glu)-CO-(CH2)18-CO2H); Aib20; C-terminal NH2) [Example 333] , I see its Ki listed as 0.0634

Briefly, Ki measured for XXEGTFTSDYSIXLDXKAQXAFVEYLIEGGPSSGAPPPS (D-Tyr1; Aib2; αMeL13; Orn16; K17((2-[2-(2-Amino-ethoxy)-ethoxy]-acetyl)2-(γ-Glu)-CO-(CH2)18-CO2H); Aib20; C-terminal NH2) [Example 360] : 0.128

The binder YXEGTXTSDYSILLDKKAQXAFIEYLIEGGPSSG (Aib2; αMeF(2F)6; K17((2-[2-(2-Amino-ethoxy)-ethoxy]-acetyl)2-(γ-Glu)-CO-(CH2)16-CO2H); Aib20; C-terminal NH2) [Example 302] showed Ki equal to 0.0289

Lab note: YXEGTXTSDYSIXLDXKAQXEFIXXLIEGGPSSGAPPPS (Aib2; αMeF(2F)6; αMeL13; Orn16; K17((2-[2-(2-Amino-ethoxy)-ethoxy]-acetyl)2-(γ-Glu)-CO-(CH2)16-CO2H); Aib20; D-Glu24; αMeY25; C-terminal NH2) [Example 236] gave Ki of 0.0425

Note to self: Ki recorded for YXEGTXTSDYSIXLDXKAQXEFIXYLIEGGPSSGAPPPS (Aib2; αMeF(2F)6; Nle13; Orn16; K17((2-[2-(2-Amino-ethoxy)-ethoxy]-acetyl)2-(γ-Glu)-CO-(CH2)16-CO2H); Aib20; D-Glu24; C-terminal NH2) [Example 249] was 0.0394

The measured Ki associated with XXEGTXTSDYSILLDKKAQXAFIEYLIEGGPSSGAPPPS (D-Tyr1; Aib2; αMeF6; K17((2-[2-(2-Amino-ethoxy)-ethoxy]-acetyl)2-(γ-Glu)-CO-(CH2)18-CO2H); Aib20; C-terminal NH2) [Example 329] reads 0.0439

Reported Ki ( XXEGTFTSDYSIXLDXKAQXAFIEYLIAGGPSSGAPPPS (D-Tyr1; Aib2; αMeL13; Orn16; K17((2-[2-(2-Amino-ethoxy)-ethoxy]-acetyl)2-(γ-Glu)-CO-(CH2)18-CO2H); Aib20; C-terminal NH2) [Example 346] ) = 0.0559

Ki for YXEGTXTSDXSIXLDXKAQXAFIXXLIEGGPSSGAPPPS (Aib2; αMeF(2F)6; 4Pal10; αMeL13; Orn16; K17((2-[2-(2-Amino-ethoxy)-ethoxy]-acetyl)2-(γ-Glu)-CO-(CH2)16-CO2H); Aib20; D-Glu24; αMeY25; C-terminal NH2) [Example 240] is 0.0284
